We begin with a simple list: items and their reported Relative Luminescence Activity (Imax).
Experiment: Luminescence activity of ZZ-fused KAZ mutants in crude enzyme solutions
Format: biochemical
Settings: Table 4; ZZ-fused (pCold-ZZ-P-); 1 μL crude enzyme solution, 1 mM DTT; 1 μg coelenterazine
Output: the number by itself.

MOLECULE | VALUE OBSERVED
KAZ-Q11R: KAZ with single amino acid substitution Q11R (protein) FTLADFVGDWRQTAGYNQDQVLEQGGLSSLFQALGVSVTPIQKVVLSGENGLKADIHVIIPYEGLSGFQMGLIEMIFKVVYPVDDHHFKIILHYGTLVIDGVTPNMIDYFGRPYPGIAVFDGKQITVTGTLWNGNKIYDERLINPDGSLLFRVTINGVTGWRLCENILA | 1.8

Next molecule, Relative Luminescence Activity (Imax) to be filled in.
Q) Determine its reported Relative Luminescence Activity (Imax): KAZ-A4E: KAZ with single amino acid substitution A4E (protein) FTLEDFVGDWQQTAGYNQDQVLEQGGLSSLFQALGVSVTPIQKVVLSGENGLKADIHVIIPYEGLSGFQMGLIEMIFKVVYPVDDHHFKIILHYGTLVIDGVTPNMIDYFGRPYPGIAVFDGKQITVTGTLWNGNKIYDERLINPDGSLLFRVTINGVTGWRLCENILA
A) 0.5
